The reported numbers originate from ChEMBL document CHEMBL4196195.

- ASSAY_SYSTEM: Cannabinoid receptor 1 (Rattus norvegicus, UniProt P20272)
- Sequence (P20272 whole entry): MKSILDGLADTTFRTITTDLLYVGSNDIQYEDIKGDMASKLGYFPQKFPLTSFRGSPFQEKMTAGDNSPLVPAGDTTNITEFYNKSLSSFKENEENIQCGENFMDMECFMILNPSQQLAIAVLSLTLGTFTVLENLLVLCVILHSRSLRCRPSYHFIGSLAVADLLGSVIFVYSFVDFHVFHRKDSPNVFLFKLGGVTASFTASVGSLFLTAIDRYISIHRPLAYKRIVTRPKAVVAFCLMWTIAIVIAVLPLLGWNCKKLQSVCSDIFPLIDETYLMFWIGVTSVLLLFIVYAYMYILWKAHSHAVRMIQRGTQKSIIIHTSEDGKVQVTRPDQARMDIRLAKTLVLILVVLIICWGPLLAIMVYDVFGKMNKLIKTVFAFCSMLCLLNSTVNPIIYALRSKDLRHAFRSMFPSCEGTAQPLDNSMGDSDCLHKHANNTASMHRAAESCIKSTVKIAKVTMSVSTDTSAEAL
- ASSAY_NAME: Displacement of [3H]CP-55,940 from CB1 receptor in rat brain membranes in absence of FAAH inhibitor PMSF by radioligand binding assay
- Type: cell membranes, Membrane
Listed here are compounds together with their documented Ki.
OUTCOME_MEASURE: Ki (nM)

{"STRUCTURE": "C[C@H](/C=C\\C/C=C\\C/C=C\\CCCC(=O)NC1CC1)/C=C\\CCCCCN=C=S", "MEASURE_UNIT": "nM", "REPORTED_RELATION": "=", "EXPERIMENTAL_VALUE": 20.3}
{"STRUCTURE": "CCCCC/C=C\\C/C=C\\C/C=C\\[C@H](C)/C=C\\CCCC(=O)NCCO", "MEASURE_UNIT": "nM", "REPORTED_RELATION": "=", "EXPERIMENTAL_VALUE": 326}
{"STRUCTURE": "CCCCC/C=C\\[C@H](C)/C=C\\C/C=C\\C/C=C\\CCCC(=O)NCCO", "MEASURE_UNIT": "nM", "REPORTED_RELATION": ">", "EXPERIMENTAL_VALUE": 1000}
{"STRUCTURE": "CCCCC/C=C\\[C@H](C)/C=C\\C/C=C\\C/C=C\\CCCC(=O)NC1CCCC1", "MEASURE_UNIT": "nM", "REPORTED_RELATION": "=", "EXPERIMENTAL_VALUE": 123}
{"STRUCTURE": "C#CCNC(=O)CCC/C=C\\C/C=C\\C/C=C\\[C@@H](C)/C=C\\CCCCC", "MEASURE_UNIT": "nM", "REPORTED_RELATION": "=", "EXPERIMENTAL_VALUE": 8.6}
